# Test system: 621-102 (TSC2-deficient)
# Run Description: relative viability vs DMSO; higher = less cytotoxic;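 further: immortalized renal angiomyolipoma cells stably carrying empty vector or TSC2, dosed in 384-well plates in DMEM, viability normalized to vehicle-treated wells within each plate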
# Measurement Context: 1 µM; serum: 10% FBS; 72 h
Structures can show the parent of a compound that is named as a salt.
Listed here are compounds together with their documented relative viability.
The response must be a number in % with no trailing unit.

Incoming: Assign relative viability to the following record: CNC(=O)c1cc(Oc2ccc(NC(=O)Nc3ccc(Cl)c(C(F)(F)F)c3)cc2)ccn1 [Sorafenib Tosylate]
Outgoing: 127

Incoming: Assign relative viability to the following record: "NC(=O)[C@@H](CCC(F)(F)F)N(Cc1ccc(-c2ncon2)cc1F)S(=O)(=O)c1ccc(Cl)cc1"
Outgoing: 117

Incoming: Assign relative viability to the following record: CNC(=O)c1cc(Oc2ccc(NC(=O)Nc3ccc(Cl)c(C(F)(F)F)c3)c(F)c2)ccn1 [BAY 73-4506 (Regorafenib)]
Outgoing: 102

Incoming: Assign relative viability to the following record: "CN1C(C(=O)Nc2ccccn2)=C(O)c2ccccc2S1(=O)=O"
Outgoing: 103

Incoming: Assign relative viability to the following record: "O=C(CCCCCCC(=O)Nc1ccccc1)NO"
Outgoing: 91.5

***
Incoming: Assign relative viability to the following record: "CNC(=O)CN1CCC(Oc2cc3c(Nc4cccc(Cl)c4F)ncnc3cc2OC)CC1"
Outgoing: 99.6

Incoming: Assign relative viability to the following record: Cc1ccc(Nc2nccc(N(C)c3ccc4c(C)n(C)nc4c3)n2)cc1S(N)(=O)=O [Pazopanib Hydrochloride]
Outgoing: 105

Incoming: Assign relative viability to the following record: "C[C@@H](Oc1cc(-n2cnc3ccc(CN4CCN(C)CC4)cc32)sc1C(N)=O)c1ccccc1C(F)(F)F"
Outgoing: 40.7

Incoming: Assign relative viability to the following record: "Nc1nc(=O)n([C@@H]2CS[C@H](CO)O2)cc1F"
Outgoing: 92

Incoming: Assign relative viability to the following record: CCN(CC)CCOc1ccc(C(=C(Cl)c2ccccc2)c2ccccc2)cc1 [Clomifene citrate (Serophene)]
Outgoing: 105

Incoming: Assign relative viability to the following record: "CO[C@H]1C[C@@H]2CC[C@@H](C)[C@@](O)(O2)C(=O)C(=O)N2CCCC[C@H]2C(=O)O[C@H]([C@H](C)C[C@@H]2CC[C@@H](OP(C)(C)=O)[C@H](OC)C2)CC(=O)[C@H](C)/C=C(\C)[C@@H](O)[C@@H](OC)C(=O)[C@H](C)C[C@H](C)/C=C/C=C/C=C/1C"
Outgoing: 47.9

Incoming: Assign relative viability to the following record: "O=c1[nH]c2ccccc2n1CCCN1CCC(n2c(=O)[nH]c3cc(Cl)ccc32)CC1"
Outgoing: 98.8

Incoming: Assign relative viability to the following record: "O=C(Nc1cccnc1)N1CCC(Cc2cccc(Oc3ccc(C(F)(F)F)cn3)c2)CC1"
Outgoing: 102

* * *

Listed here are molecules together with their documented relative viability.
# Tested on: 621-102 (TSC2-deficient)
# Run Description: relative viability vs DMSO; higher = less cytotoxic
# Measurement Context: 0.001 µM; serum: 10% FBS; 72 h
Counter-ions that a name gives are not always drawn.
The response must be a number in % with no trailing unit.

The examples below pair each entry with its known result.
Incoming: Assign relative viability to the following record: O=c1cc(-c2ccc(O)cc2)oc2cc(O)cc(O)c12 [Apigenin]
Outgoing: 105

Incoming: Assign relative viability to the following record: Nc1nc(Cl)nc2c1ncn2[C@@H]1O[C@H](CO)[C@@H](O)[C@@H]1F [Clofarabine]
Outgoing: 104

***
Incoming: Assign relative viability to the following record: CO[C@H]1/C=C\C=C(/C)C(=O)NC2=CC(=O)C(NCCN(C)C)=C(C[C@@H](C)C[C@H](OC)[C@H](O)[C@@H](C)/C=C(\C)[C@@H]1OC(N)=O)C2=O [17-DMAG]
Outgoing: 58

Incoming: Assign relative viability to the following record: Nc1cccc2c1CN(C1CCC(=O)NC1=O)C2=O (centres undefined) [Lenalidomide]
Outgoing: 115

Incoming: Assign relative viability to the following record: Nc1ccn([C@@H]2O[C@H](CO)[C@@H](O)[C@@H]2O)c(=O)n1 [Cytarabine (Cytosar-U)]
Outgoing: 93.5

Incoming: Assign relative viability to the following record: CCCCC(=O)N(Cc1ccc(-c2ccccc2-c2nnn[nH]2)cc1)[C@H](C(=O)O)C(C)C [Valsartan]
Outgoing: 113

Incoming: Assign relative viability to the following record: COC(=O)C1=C(C)NC(C)=C(C(=O)OCCN2CCN(C(c3ccccc3)c3ccccc3)CC2)C1c1cccc([N+](=O)[O-])c1 (centres undefined) [Manidipine HCl (CV-4093)]
Outgoing: 110

Incoming: Assign relative viability to the following record: c1ccc2c(CC3=NCCN3)cccc2c1 [Naphazoline HCl]
Outgoing: 109

Incoming: Assign relative viability to the following record: CC(=O)Nc1nc(C)c(-c2ccc(Cl)c(S(=O)(=O)NCCO)c2)s1 [PIK-93]
Outgoing: 106

Incoming: Assign relative viability to the following record: Cc1[nH]c2ccccc2c1CCNCc1ccc(/C=C/C(=O)NO)cc1 [LBH-589 (Panobinostat)]
Outgoing: 86.7

Incoming: Assign relative viability to the following record: CCC(=O)O[C@H]1CC[C@H]2[C@@H]3CCC4=CC(=O)CC[C@]4(C)[C@H]3CC[C@]12C [Testosterone propionate (Agovirin)]
Outgoing: 104

Incoming: Assign relative viability to the following record: COc1cc(Nc2ncc3c(n2)-c2ccc(Cl)cc2C(c2c(F)cccc2OC)=NC3)ccc1C(=O)O [MLN8237]
Outgoing: 87.6

Incoming: Assign relative viability to the following record: COc1cc2c(Oc3ccc4[nH]c(C)cc4c3F)ncnc2cc1OCCCN1CCCC1 [Cediranib (AZD2171)]
Outgoing: 117

Incoming: Assign relative viability to the following record: CC[C@@H]1C(=O)N(C)c2cnc(Nc3ccc(C(=O)NC4CCN(C)CC4)cc3OC)nc2N1C1CCCC1 [BI 2536]
Outgoing: 80.3

* * *

# System: 621-103 (TSC2-rescued)
# Run Description: relative viability vs DMSO; higher = less cytotoxic
# Measurement Context: 0.001 µM; serum: 10% FBS; 72 h
Structures can show the parent of a compound that is named as a salt.
Measure: relative viability (%)
The response must be a number in % with no trailing unit.

The examples below pair each entry with its known result.
Incoming: Assign relative viability to the following record: COCCOC(=O)C1=C(C)NC(C)=C(C(=O)OC/C=C/c2ccccc2)C1c1cccc([N+](=O)[O-])c1 (centres undefined)
Outgoing: 104

Incoming: Assign relative viability to the following record: "Cc1cc(Nc2cc(CN3CCOCC3)c3nc(C)c(Cc4ccc(Cl)cc4F)n3n2)n[nH]1"
Outgoing: 96.9

Incoming: Assign relative viability to the following record: "C[C@@H](Oc1cc(-c2cnn(C3CCNCC3)c2)cnc1N)c1c(Cl)ccc(F)c1Cl"
Outgoing: 103

Incoming: Assign relative viability to the following record: "CCNC(=O)c1cc2c(-c3cc(OCCN4CCCC4)c(Cl)cc3Cl)nc(N)nc2s1"
Outgoing: 99.7

Incoming: Assign relative viability to the following record: "N#CC(=C(/N)Sc1ccccc1N)/C(C#N)=C(\N)Sc1ccccc1N"
Outgoing: 101

Incoming: Assign relative viability to the following record: "N#C/C(=C\c1ccc(O)c(O)c1)C(=O)NCc1ccccc1"
Outgoing: 109

Incoming: Assign relative viability to the following record: O=c1n(CCCN2CCN(c3cccc(Cl)c3)CC2)nc2ccccn12 [Trazodone HCl]
Outgoing: 84.3

Incoming: Assign relative viability to the following record: "O=C1NC(=O)/C(=C/c2ccc(-c3ccc(F)cc3O)o2)S1"
Outgoing: 95.3

***
Incoming: Assign relative viability to the following record: "Cc1ccc(C(=O)Nc2cccc(C(F)(F)F)c2)cc1Nc1nc(-c2cccnc2)nc2c1cnn2C"
Outgoing: 105

* * *

Listed here are compounds together with their documented relative viability.
# System: 621-102 (TSC2-deficient)
# Run Description: relative viability vs DMSO; higher = less cytotoxic
# Measurement Context: 0.01 µM; serum: 10% FBS; 72 h
The response must be a number in % with no trailing unit.

The examples below pair each entry with its known result.
Incoming: Give 621-102 (TSC2-deficient) relative viability for the following compound: "CNC(=O)c1cc(Oc2ccc(NC(=O)Nc3cc(C(C)(C)C)nn3-c3ccc4ncccc4c3)c(F)c2)ccn1"
Outgoing: 92.2

Incoming: Give 621-102 (TSC2-deficient) relative viability for the following compound: CCN(CC)CCNC(=O)c1c(C)[nH]c(/C=C2\C(=O)Nc3ccc(F)cc32)c1C [Sunitinib Malate]
Outgoing: 107

***
Incoming: Give 621-102 (TSC2-deficient) relative viability for the following compound: "Clc1ccc(C2(c3ccc(-c4cn[nH]c4)cc3)CCNCC2)cc1"
Outgoing: 105

Incoming: Give 621-102 (TSC2-deficient) relative viability for the following compound: "O=C(O)/C=C/c1ccc(Cn2ccnc2)cc1"
Outgoing: 105

Incoming: Give 621-102 (TSC2-deficient) relative viability for the following compound: Nc1nc2[nH]cc(CCc3ccc(C(=O)N[C@@H](CCC(=O)O)C(=O)O)cc3)c2c(=O)[nH]1 [Pemetrexed disodium]
Outgoing: 107

Incoming: Give 621-102 (TSC2-deficient) relative viability for the following compound: "CCCc1nc2c(C)cc(-c3nc4ccccc4n3C)cc2n1Cc1ccc(-c2ccccc2C(=O)O)cc1"
Outgoing: 103

Incoming: Give 621-102 (TSC2-deficient) relative viability for the following compound: COc1cc(Nc2ncc(F)c(Nc3ccc4c(n3)NC(=O)C(C)(C)O4)n2)cc(OC)c1OC [R406]
Outgoing: 111
